Measurement Label: log10 vapour pressure (mmHg)
A bare number is all that is needed in reply.

IN: Item under review: CCCCCCC=O . Reported log10 vapour pressure (mmHg)?
OUT: 0.546

IN: // same read-out, input: CCCCC1CCCC1
OUT: 0.602

IN: // same read-out, input: CCCCCCCCCCl
OUT: -0.574

IN: // same read-out, input: COc1cc(Cl)c(Cl)c(Cl)c1O
OUT: -2.73

IN: // same read-out, input: COc1cc(Oc2ccc(Cl)cc2Cl)ccc1[N+](=O)[O-]
OUT: -4.85

IN: // same read-out, input: CCOS(=O)(=O)OCC
OUT: -0.674

IN: // same read-out, input: C=CC(C)CC (stereo not given)
OUT: 2.43

IN: // same read-out, input: c1ccccc1
OUT: 1.98

IN: // same read-out, input: CCCN(CCC)c1c([N+](=O)[O-])cc(S(C)(=O)=O)cc1[N+](=O)[O-]
OUT: -8.03

IN: // same read-out, input: CCCCOCCOC(=O)COc1cc(Cl)c(Cl)cc1Cl
OUT: -5.82

IN: // same read-out, input: Cc1ccccc1C(C)C
OUT: 0.176

IN: // same read-out, input: CCCC[N+](=O)[O-]
OUT: 0.579

IN: // same read-out, input: FC(F)(Cl)CCl
OUT: 2.53

IN: // same read-out, input: CCCCOC(=O)/C=C\C(=O)OCCCC
OUT: -3.21

IN: // same read-out, input: CCCCOC(=O)c1ccccc1C(=O)OCc1ccccc1
OUT: -5.08

IN: // same read-out, input: CC(C)=CC(=O)C=C(C)C
OUT: -0.557

IN: // same read-out, input: CCCC(=O)c1c(C)cc(C)c(C2CC(=O)C(C(CC)=NOCC)=C(O)C2)c1C (stereo not given)
OUT: -8.12

IN: // same read-out, input: CC1(C)OCC(CO)O1 (stereo not given)
OUT: 2.03

IN: // same read-out, input: Cc1ccc(C)c(O)c1C
OUT: -1.46

IN: // same read-out, input: Clc1cccc(Oc2ccc(Cl)c(Cl)c2)c1
OUT: -3.91

IN: // same read-out, input: C1CCC(NC2CCCCC2)CC1
OUT: -1.47

IN: // same read-out, input: FC(F)(F)C(F)(F)C(F)(F)C(F)(F)C(F)(F)C(F)(F)C(F)(F)F
OUT: 1.88

IN: // same read-out, input: OCC(F)(F)F
OUT: 1.85

IN: // same read-out, input: O=C(Nc1ccccc1)Nc1cnns1
OUT: -10.6

IN: // same read-out, input: CCCC(C)Br (stereo not given)
OUT: 1.33

IN: // same read-out, input: c1ccc2nc3ccccc3cc2c1
OUT: -3.87

IN: // same read-out, input: CCC(=O)O
OUT: 0.548

IN: // same read-out, input: O=C(Cl)CCC(=O)Cl
OUT: -0.432

IN: // same read-out, input: CCCCC=C(C)C
OUT: 1.25

IN: // same read-out, input: CC(=O)Nc1ccc(/N=N/c2cc(C)ccc2O)cc1
OUT: -10.3

IN: // same read-out, input: CCCCCCCCCCCCCS
OUT: -3.16

IN: // same read-out, input: CCCCCCCCCCCCCBr
OUT: -2.87

IN: // same read-out, input: CCSSCC
OUT: 0.631

IN: // same read-out, input: C=COC(C)=O
OUT: 1.96

IN: // same read-out, input: Cc1ccc([N+](=O)[O-])cc1
OUT: -1.8
